tested.system: VLA-4 (Homo sapiens, UniProt P05556+P13612)
Construct: Jurkat cells express high levels of VLA-4 on their membrane surface; host or cells: Jurkat Clone E6-1
Sequence (P13612 34-1032): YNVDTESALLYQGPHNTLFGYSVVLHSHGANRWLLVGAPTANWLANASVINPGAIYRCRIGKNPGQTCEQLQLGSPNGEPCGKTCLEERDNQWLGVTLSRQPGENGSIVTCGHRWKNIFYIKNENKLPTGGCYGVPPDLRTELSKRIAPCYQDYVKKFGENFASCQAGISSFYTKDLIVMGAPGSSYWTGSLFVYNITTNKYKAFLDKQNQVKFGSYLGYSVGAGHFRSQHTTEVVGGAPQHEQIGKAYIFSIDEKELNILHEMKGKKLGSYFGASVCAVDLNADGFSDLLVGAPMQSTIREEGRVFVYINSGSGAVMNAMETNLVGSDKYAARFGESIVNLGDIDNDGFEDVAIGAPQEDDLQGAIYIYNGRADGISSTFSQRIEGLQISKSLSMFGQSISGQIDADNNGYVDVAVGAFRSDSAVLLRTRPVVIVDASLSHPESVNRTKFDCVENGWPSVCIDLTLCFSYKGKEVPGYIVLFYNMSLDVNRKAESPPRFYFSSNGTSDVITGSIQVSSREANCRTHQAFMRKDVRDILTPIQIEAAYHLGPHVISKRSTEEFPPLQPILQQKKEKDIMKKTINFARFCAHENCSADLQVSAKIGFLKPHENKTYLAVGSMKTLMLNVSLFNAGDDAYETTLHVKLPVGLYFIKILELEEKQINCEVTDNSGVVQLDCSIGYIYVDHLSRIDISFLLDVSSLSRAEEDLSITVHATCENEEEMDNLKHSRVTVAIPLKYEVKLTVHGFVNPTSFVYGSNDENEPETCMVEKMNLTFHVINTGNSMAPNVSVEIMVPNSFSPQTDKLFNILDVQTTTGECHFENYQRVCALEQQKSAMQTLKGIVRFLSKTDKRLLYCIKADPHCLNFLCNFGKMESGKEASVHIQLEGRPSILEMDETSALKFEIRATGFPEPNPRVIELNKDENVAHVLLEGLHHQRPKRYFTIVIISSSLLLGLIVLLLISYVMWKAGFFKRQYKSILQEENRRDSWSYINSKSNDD
Sequence (P05556 21-798): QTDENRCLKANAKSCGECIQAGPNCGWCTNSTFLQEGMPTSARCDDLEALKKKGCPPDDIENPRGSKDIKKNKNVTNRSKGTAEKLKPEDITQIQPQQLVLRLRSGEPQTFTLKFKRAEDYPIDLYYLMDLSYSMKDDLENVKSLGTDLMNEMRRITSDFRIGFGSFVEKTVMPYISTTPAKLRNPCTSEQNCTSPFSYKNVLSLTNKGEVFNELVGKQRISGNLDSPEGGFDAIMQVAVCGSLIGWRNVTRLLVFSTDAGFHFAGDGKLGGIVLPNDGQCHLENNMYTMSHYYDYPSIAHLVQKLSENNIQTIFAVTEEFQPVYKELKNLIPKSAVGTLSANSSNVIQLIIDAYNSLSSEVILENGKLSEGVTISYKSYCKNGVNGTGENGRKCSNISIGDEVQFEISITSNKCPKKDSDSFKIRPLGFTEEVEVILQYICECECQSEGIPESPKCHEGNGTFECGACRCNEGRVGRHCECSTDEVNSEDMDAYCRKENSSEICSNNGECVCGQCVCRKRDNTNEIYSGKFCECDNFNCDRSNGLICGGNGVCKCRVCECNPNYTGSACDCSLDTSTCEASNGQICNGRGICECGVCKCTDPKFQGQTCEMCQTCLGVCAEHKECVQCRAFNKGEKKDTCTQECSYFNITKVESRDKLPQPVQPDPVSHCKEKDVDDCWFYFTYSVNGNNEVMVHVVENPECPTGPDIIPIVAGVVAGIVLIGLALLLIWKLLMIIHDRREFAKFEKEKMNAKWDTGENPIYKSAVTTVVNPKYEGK
protocol.details: VLA-4/VCAM binding (adhesion) assay in Jurkat cells
Format: cell-based
condition.info: Jurkat cells activated with 0.5 mM Mn2+, VCAM-1-coated plates, 45 min at 37° C.
value.type: IC50 (nM)
Numbers only, in nM.

>  <compound>
CCCCCCCCCCCCOCC(C[N+](C)(C)CCCNC(=O)CCC(=O)NCCOCCOCCOCCOCCOCCOCCOCCOCCOCCOCCOCCOCCC(=O)NCCC1(C(=O)N[C@@H](Cc2ccc(NC(=O)c3c(Cl)cccc3Cl)cc2)C(=O)O)CCCC1)OCCCCCCCCCCCC (stereo partly shown)

>  <IC50 / nM>
942

$$$$
>  <compound>
CCCCCCCCCCCCCCCCOCC(C[N+](C)(C)CCCNC(=O)CCC(=O)NCCOCCOCCOCCOCCOCCOCCOCCOCCOCCOCCOCCOCCC(=O)NCCC1(C(=O)NC(Cc2ccc(NC(=O)c3c(Cl)cccc3Cl)cc2)C(=O)O)CCCC1)OCCCCCCCCCCCCCCCC (stereo not shown)

>  <IC50 / nM>
308

$$$$
>  <compound>
CCCCCCCCCCCCCCCCCCOCC(C[N+](C)(C)CCCNC(=O)CCOCCOCCOCCOCCOCCOCCOCCOCCOCCC(=O)NCCC1(C(=O)N[C@@H](Cc2ccc(NC(=O)c3c(Cl)cccc3Cl)cc2)C(=O)O)CCCC1)OCCCCCCCCCCCCCCCCCC (stereo partly shown)

>  <IC50 / nM>
133

$$$$

Please supply the value of reported IC50 for the item CCCCCCCCCCCCCCCCOCC(CN(C)CCCNC(=O)CCC(=O)NCCOCCOCCOCCOCCOCCOCCOCCOCCOCCOCCOCCOCCC(=O)NCCC1(C(=O)N[C@@H](Cc2ccc(NC(=O)c3c(Cl)cccc3Cl)cc2)C(=O)O)CCCC1)OCCCCCCCCCCCCCCCC (stereo partly shown)
6
